System: OVCAR-3 ovarian
Test: NCI tumour cell line growth inhibition, 48 h; in the data active = GI50 below about 0.43 µM; inactive = the rest
Assign a class; possible classes are active, inactive

molecule	category
O=c1cc2oc3cc(O)c(O)cc3c(-c3ccccc3O)c-2cc1O	inactive

How was C=CC(=O)N1CCC(C2CCNc3c(C(N)=O)c(-c4ccc(Oc5ccccc5)cc4)nn32)CC1 (stereo not drawn) classified in this test? inactive

What classification did COc1cccc(/C=N/[N-]C(=O)c2ccncc2)c1[O-].[Cu+2].[OH3+] end up with in this test? inactive

Hi, sorry to bother you, what did the test record for COc1ccc(-c2oc(=O)ccc2-c2cc(OC)c(OC)c(OC)c2)cc1F ? inactive

State the result this test recorded for Cc1ccc(Cl)cc1Nc1nc(C(F)(F)F)ccc1C(=O)N1CCN(c2cccc(Cl)c2)CC1 . inactive

State the result this test recorded for CC1(C)OCCn2c1nc1c(N3CCOCC3)nc(-c3cnc(N)nc3)nc12 . active

For C[C@H]1Oc2cc(cnc2N)-c2c(nn(C)c2C#N)CN(C)C(=O)c2ccc(F)cc21 , what call appears in the results of this test? inactive

Hi, sorry to bother you, what did the test record for N#C/C=C(\c1ccc([N+](=O)[O-])cc1)n1nnc2cc(Cl)c(Cl)cc21 ? inactive

Which outcome was assigned to Cc1ccc(/C=C/c2c(C(=O)/C=C/c3ccc(C(F)(F)F)cc3)c(C)nc3ccccc23)cc1 in this test? inactive

Short answer needed: outcome of this test for COc1cc(CNCCCN2C(=O)c3ccc4c5c(ccc(c35)C2=O)C(=O)N(CCCNCc2cc(OC)c(OC)c(OC)c2)C4=O)cc(OC)c1OC ? active

# fetch the recorded call for Cc1c(CNc2ccc(C(=O)NC(CC(=O)O)C(=O)O)cc2)ccc2nc(N)nc(N)c12 (stereo not drawn) here inactive

Answer briefly: the call reported for CCCn1c(N)c(C(=O)N/N=C(/C)c2cc3cccc(OC)c3o2)sc1=S in this assay. inactive

Recorded test call requested for CCN(CC)c1nc(-c2ccc(Cl)cc2Cl)nc2ccccc12 inactive

// outcome(item) with item = COc1cc(-c2nn(-c3cccc(NC(=O)Nc4ccc(Cl)c(Cl)c4)c3)cc2-c2ccncc2)ccc1Cl inactive

# fetch the recorded call for C=CCCCCCCCCCCC1(O)C=CC2=[N+](CCCCCN=C(N)N)CCCN21 (stereo not drawn) here inactive

Any idea what this test logged for Cc1csc(Nc2nc(-c3cccc(Br)c3)nc(C(Cl)(Cl)Cl)n2)n1 ? inactive

Write down the call the test reported for this molecule. Item: COC12C=C/C(=C(/C(=O)OCc3ccncc3)C(=O)CCCCCCCCC3(OC)C=C/C(=C(/C(=O)OCc4ccncc4)C(=O)CCCCCCCC1)O3)O2 active

What outcome does the record of this test show for NS(=O)(=O)c1ccc(N(/C=C/C(=O)C(F)(F)F)CC(=O)c2ccc(Cl)cc2)cc1 ? inactive

----------
System: LOX IMVI melanoma
Experiment: NCI tumour cell line growth inhibition, 48 h; in the data active = GI50 below about 0.43 µM; inactive = the rest
Allowed answers: t (active), f (inactive)

Solved entries:
molecule	assayed.system	category
Cc1cn2c(/C=C3\C(=O)Nc4ccc(O)cc43)c(-c3ccc(Cl)cc3)nc2s1	LOX IMVI melanoma	f
COc1ccncc1C#Cc1cncc(C(=O)Nc2ccc(CN3CCN(C)CC3)c(C(F)(F)F)c2)c1	LOX IMVI melanoma	f
COc1ccccc1N1CCN(CCCn2c(=O)c3c(OC)nc(C)cc3c(=O)n2-c2ccccc2)CC1	LOX IMVI melanoma	f
Cc1ccc(Cl)cc1Nc1nc(C(F)(F)F)ccc1C(=O)N1CCN(c2cccc(Cl)c2)CC1	LOX IMVI melanoma	f
Ic1ccc(-n2nnnc2-c2cnoc2-c2ccccc2)cc1	LOX IMVI melanoma	f
C=CCc1cccc(/C=N/NC(=O)CN2CCN(Cc3ccccc3)CC2)c1O	LOX IMVI melanoma	f

Recorded test outcome, item CC1(C)OCCn2c1nc1c(N3CCOCC3)nc(-c3cnc(N)nc3)nc12 t

Identify the outcome logged in this assay for the molecule shown: C=CCCCCCCCCCCC1(O)C=CC2=[N+](CCCCCN=C(N)N)CCCN21 (centres undefined) f

Test call for this molecule, please: COc1cc(-c2nn(-c3cccc(NC(=O)Nc4ccc(Cl)c(Cl)c4)c3)cc2-c2ccncc2)ccc1Cl f

----------
System: A498 renal
Experiment: NCI tumour cell line growth inhibition, 48 h
Entries and their TGI
Record the value in µM, omitting the unit from your answer.

compound	assayed.system	TGI / µM
O=C(N/N=C1/C(=O)N(c2ccc(Cl)cc2Cl)C(=O)C(=O)C1c1nc2ccccc2o1)c1ccccc1O (stereo not given)	A498 renal	88.2
COC1C(O)=C2C(=O)O/C(C)=C/C=C/C=C/C=C\CC(c3ccccc3)NC(=O)\C=C/C=C\C=C\C=C\[C@@]2(C)[C@@H]1O (stereo not given in full)	A498 renal	0.318
Cc1cc(OCc2nnc3n2N=C(c2cc(F)c(Cl)cc2Cl)/C(=C/c2ccc(Cl)cc2)S3)ccc1Cl	A498 renal	45.9

# return TGI of O=c1cc2oc3cc(O)c(O)cc3c(-c3ccccc3O)c-2cc1O (system: A498 renal) 8.36

Please look at N#CC1(C#N)C2CCCCC23OC(=N)C1(C#N)C(c1ccccc1)O3 (stereo not given) and tell me its recorded TGI on A498 renal. 48.9

Provide A498 renal TGI reading for COc1cc(-c2nn(-c3cccc(NC(=O)Nc4ccc(Cl)c(Cl)c4)c3)cc2-c2ccncc2)ccc1Cl . 4.59

GET TGI | system: A498 renal | item: C=Cc1c(C)c2cc3nc(cc4[nH]c(cc5nc(cc1[nH]2)C(C)=C5CCC(=O)O)c(CCC(=O)OC)c4C)[C@@]1(C)C3=CC=C(C(=O)OC)[C@H]1C(=O)OC 2.52

----------
GI50 values for the compounds below.
System: CAKI-1 renal
Test: NCI tumour cell line growth inhibition, 48 h

Sample records with GI50:
compound	readout	result
COC12C=C/C(=C(/C(=O)OCc3ccncc3)C(=O)CCCCCCCCC3(OC)C=C/C(=C(/C(=O)OCc4ccncc4)C(=O)CCCCCCCC1)O3)O2	GI50	1120 nM
COc1cc(C2c3cc4c(cc3C(O)C(CO)C2CO)OCO4)cc(OC)c1OC (configuration not stated)	GI50	3090 nM
COc1ccc2[nH]cc(-c3nc(-c4c[nH]c5ncccc45)cs3)c2c1	GI50	2050 nM
CCN(CC)CCOc1ccc(/C=C2\CC3C4CC=C5C[C@@H](O)CC[C@]5(C)C4CC[C@]3(C)C2=O)cc1OC (some centres not stated)	GI50	4140 nM
C=CCc1cccc(/C=N/NC(=O)CN2CCN(Cc3ccccc3)CC2)c1O	GI50	841 nM

Name the recorded GI50 of the item Cc1ccc(/C=C/c2c(C(=O)/C=C/c3ccc(C(F)(F)F)cc3)c(C)nc3ccccc23)cc1 in your answer. 1110 nM

Read off the recorded GI50 for Cc1ccc(Cl)cc1Nc1nc(C(F)(F)F)ccc1C(=O)N1CCN(c2cccc(Cl)c2)CC1 26400 nM

For the compound COc1ccncc1C#Cc1cncc(C(=O)Nc2ccc(CN3CCN(C)CC3)c(C(F)(F)F)c2)c1 , give its measured GI50 value. 22600 nM

----------
Tested on: OVCAR-4 ovarian
Test: NCI tumour cell line growth inhibition, 48 h
readout: TGI (µM)
Kindly answer with a numeric value in µM, unit omitted.

Examples with their reported TGI follow.
compound	TGI (µM)
O=[N+]([O-])c1cc2c(c3nonc13)OCCCCO2	27.4
COc1cccc2c1C(=O)c1c(O)c3c(c(O)c1C2=O)C[C@@](O)(C(=O)CO)C[C@@H]3OC1CC(N)C(OC)C(C)O1 (some centres undefined)	9.67
C[C@@]12CCC3C1C=C1C(=O)c4cc(O)ccc4C(=O)[C@]1(O2)[C@@]3(C)C=O	15.7

Output measured TGI for this item: COc1ccc(N2C(=O)CS(=O)(=O)C2c2cccc(Oc3ccccc3)c2)cc1 (centres undefined) 79.5

----------
System: SR leukemia
Assay: NCI tumour cell line growth inhibition, 48 h; in the data active means GI50 below about 0.43 µM; inactive means the rest
Assign a class; possible classes are Y (active), N (inactive)

Answered examples (4):
structure.smiles.string	category
Ic1ccc(-n2nnnc2-c2cnoc2-c2ccccc2)cc1	N
CC1(C)OCCn2c1nc1c(N3CCOCC3)nc(-c3cnc(N)nc3)nc12	N
Cc1cn2c(/C=C3\C(=O)Nc4ccc(O)cc43)c(-c3ccc(Cl)cc3)nc2s1	N
COC12C=C/C(=C(/C(=O)OCc3ccncc3)C(=O)CCCCCCCCC3(OC)C=C/C(=C(/C(=O)OCc4ccncc4)C(=O)CCCCCCCC1)O3)O2	Y

We now examine a further compound.
Could you kindly confirm the outcome this assay logged for Cc1ccc(/C=C/c2c(C(=O)/C=C/c3ccc(C(F)(F)F)cc3)c(C)nc3ccccc23)cc1 ? N

----------
System: U251 CNS
Assay: NCI tumour cell line growth inhibition, 48 h
Listed compounds paired with reported TGI

compound	TGI
O=[N+]([O-])c1ccc(S(=O)(=O)N=Ic2ccccc2)cc1	> 100 µM
C=CCc1cccc(/C=N/NC(=O)CN2CCN(Cc3ccccc3)CC2)c1O	14.9 µM
CN(C)c1c([O-])c(=[N+](C)C)c1=O	> 100 µM
COc1c(OC)c(OC)c(C(=O)/C=C/c2ccccc2)c(OC)c1OC	20.5 µM
CC1(C)OC2C(O)CN3CCS[C@H]3C2O1 (stereo partly drawn)	> 100 µM

Name the value of TGI reported for Nc1nccc2c1ccn2-c1ccc(NC(=O)c2ccc(N3CCOCC3)c(C(F)(F)F)c2)cc1 when tested on U251 CNS. 5.19 µM

Reference source for all entries: PubChem BioAssay (NCI)
